Assay: Mouse PK assay after oral administration
Conditions: male, ICR, mouse, plasma, po, 30 mg/kg
Exercise: state measured half-life for each of the compounds provided.
Entry rule: numbers only, all in h.

q: Item under review: COc1cnc(C(F)F)cc1-c1cc(C)ncc1C(=O)Nc1nc2cnc(-c3c(C)noc3C)cc2s1 . Reported half-life?
a: 1.97

q: Quick check: half-life of COc1cnc(C(F)F)cc1-c1cc(C)ncc1C(=O)Nc1nc2cnc(-c3c(C)nnn3C)cc2s1 ?
a: 1.75

q: Which half-life value is on record for COc1cnc(Cl)c(F)c1-c1cc(C)ncc1C(=O)Nc1nc2cnc(-c3c(C)nnn3C)c(F)c2s1 ?
a: 2.16

q: Given the compound COc1cnc(Cl)cc1-c1cc(C)ncc1C(=O)Nc1nc2cnc(-c3c(C)nnn3C)c(F)c2s1 , what is its reported half-life?
a: 2.2

q: half-life lookup needed for COc1cnc(Cl)c(F)c1-c1cc(C)ncc1C(=O)Nc1nc2cnc(-c3c(C)nnn3C)cc2s1 , thanks.
a: 5.1

q: Name the recorded half-life for COc1cnc(Cl)cc1-c1cc(C)ncc1C(=O)Nc1nc2cnc(-c3c(C)nnn3C)cc2s1 .
a: 2.68

###

Assay: Metabolic stability of mouse liver microsome assay
Settings: liver microsomes, pH 7.4
assay-endpoint: half-life at 1 µM (h)
Enter your answer as a number in h; do not include the unit.

q: Entry under review: COc1cnc(Cl)cc1-c1cc(C)ncc1C(=O)Nc1nc2cnc(-c3c(C)noc3C)cc2s1 . Reported half-life at 1 µM?
a: 11.6

###

Target: helicase domain of the Pol θ protein (Homo sapiens, UniProt O75417)
Construct: The helicase domain of the Pol θ protein was purified from insect protein expression system; made in house; host or cells: insect protein expression system
Sequence (O75417 102-554 limits assumed): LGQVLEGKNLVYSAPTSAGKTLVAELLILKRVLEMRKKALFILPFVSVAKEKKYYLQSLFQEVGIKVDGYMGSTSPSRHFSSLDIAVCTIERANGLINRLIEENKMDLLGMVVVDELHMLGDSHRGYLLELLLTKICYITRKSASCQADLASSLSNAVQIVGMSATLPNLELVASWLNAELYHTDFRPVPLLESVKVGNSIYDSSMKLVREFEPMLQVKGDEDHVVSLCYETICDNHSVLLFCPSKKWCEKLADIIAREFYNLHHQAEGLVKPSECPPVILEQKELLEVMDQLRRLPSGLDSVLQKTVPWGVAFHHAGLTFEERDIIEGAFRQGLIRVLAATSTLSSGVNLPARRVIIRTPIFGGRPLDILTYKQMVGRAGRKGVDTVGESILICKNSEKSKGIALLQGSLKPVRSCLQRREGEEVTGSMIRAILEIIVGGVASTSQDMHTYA
Experiment: Biochemical Activity Assay (ADP Glo Assay) of Pol θ inhibitor, ATPase activity
Conditions: read-out: Biochemical assay IC50; ADP-Glo assay, ATPase activity of Pol θ helicase domain, ssDNA substrate
assay-endpoint: IC50 (nM)
Provide only the numeric value, understood in nM.

q: State the recorded IC50 for this entry: COc1cnc(Cl)cc1-c1cc(C)ncc1C(=O)Nc1nc2cnc(-c3c(C)noc3C)cc2s1
a: 5.75

###

Target: helicase domain of the Pol θ protein (Homo sapiens)
Construct: The helicase domain of the Pol θ protein was purified from insect protein expression system; made in house; host or cells: insect protein expression system
Assay: Biochemical Activity Assay (ADP Glo Assay) of Pol θ inhibitor, ATPase activity
Settings: Biochemical assay IC50 (nM), ADP-Glo, ssDNA substrate, 60 min at room temperature
assay-endpoint: IC50

q: For the molecule [2H]C([2H])([2H])c1cc(-c2cc(Cl)ncc2OC)c(C(=O)Nc2nc3ccc(N4CCC(O)CC4)nc3s2)cn1 , what IC50 is on record?
a: < 50 nM

q: Which IC50 value belongs to COc1cnc(Cl)cc1-c1cc(C)ncc1C(=O)Nc1nc2ccc(N3CCOCC3)cc2s1 ?
a: < 50 nM

###

Test: Mouse PK assay after oral administration
Conditions: mouse, plasma, po, 30 mg/kg
assay-endpoint: half-life (h)
The response must be a number in h with no trailing unit.

q: Quick check: half-life of COc1cnc(Cl)cc1-c1cc(C)ncc1C(=O)Nc1nc2cnc(-c3c(C)noc3C)cc2s1 [Example 155] ?
a: 2.26
